pIC50: −log10 of the molar value.
// molecules with reported pIC50 on E3 ubiquitin-protein ligase SMURF1 (Homo sapiens, UniProt Q9HCE7), multi-publication
Decide by pIC50: equal to or exceeding 7 means 1 (yes), less means 0 (no).

Could you please find out whether `Cc1c(C(=O)Nc2c(C)n(C)n(-c3ccccc3F)c2=O)noc1-c1ccc(N(C)C)cc1` has pIC50 that meets 7 or exceeds it? 0 (no)

Could you please find out whether CO[C@@H]1C[C@@H](C(C)(C)C)O[C@@H](c2onc(C(=O)Nc3c(C)n(C)n(C4CCC4)c3=O)c2C)C1.CO[C@@H]1C[C@@H](c2onc(C(=O)Nc3c(C)n(C)n(C4CCC4)c3=O)c2C)O[C@@H](C(C)(C)C)C1 (mixture of isomers) has pIC50 that meets 7 or exceeds it? 0 (no)

Could you please find out whether `COc1ccc(-c2onc(C(=O)Nc3c(C)n(C)n(C4CCCCC4)c3=O)c2C2CC2)c(C(F)(F)F)c1` has pIC50 that meets 7 or exceeds it? 1 (yes)

Could you please find out whether `Cc1c(C(=O)Nc2c(C)n(C)n(C3CCCCC3)c2=O)noc1C1=CCC(C)(C)CC1` has pIC50 that meets 7 or exceeds it? 1 (yes)

Could you please find out whether `Cc1c(C(=O)Nc2c(C)n(C)n(C3CCCCC3)c2=O)noc1C1=CCCCCC1` has pIC50 that meets 7 or exceeds it? 1 (yes)

Could you please find out whether `Cc1c(C(=O)Nc2c(C)n(C)n(-c3ccccc3F)c2=O)nnn1-c1ccc(Cl)cc1Cl` has pIC50 that meets 7 or exceeds it? 0 (no)

Could you please find out whether Cc1c(C(=O)Nc2c(C)n(C)n(C3CCCCC3)c2=O)noc1[C@@H]1CC=C[C@H](C)O1 (racemic) has pIC50 that meets 7 or exceeds it? 0 (no)

Could you please find out whether `Cc1c(C(=O)Nc2c(C)n(C)n(C3CCCCC3)c2=O)noc1C1=CCC(C)(C)C1` has pIC50 that meets 7 or exceeds it? 1 (yes)

Could you please find out whether `Cc1c(C(=O)Nc2c(C)n(C)n(C3CCCCC3)c2=O)noc1-c1ccc2occc2c1` has pIC50 that meets 7 or exceeds it? 1 (yes)

Could you please find out whether Cc1c(C(=O)Nc2c(C)n(C)n(C3CCCCC3)c2=O)noc1[C@@H]1CCC[C@H](C(C)(C)C)O1 (single isomer, unassigned) has pIC50 that meets 7 or exceeds it? 1 (yes)

Could you please find out whether Cc1c(C(=O)Nc2c(C)n(C)n(C3CCCCC3)c2=O)noc1C1CC(Br)C(C)CO1 (centres unmarked) has pIC50 that meets 7 or exceeds it? 0 (no)

Could you please find out whether `COc1ccc(-n2nnc(C(=O)Nc3c(C)n(C)n(C4CCCCC4)c3=O)c2C)c(Cl)c1` has pIC50 that meets 7 or exceeds it? 0 (no)

Could you please find out whether `Cc1c(C(=O)Nc2c(C)n(C)n(-c3ccccc3F)c2=O)nnn1-c1ccc(Cl)cc1` has pIC50 that meets 7 or exceeds it? 0 (no)

Could you please find out whether `Cc1c(C(=O)Nc2c(C)n(C)n(C3CCCCC3)c2=O)noc1-c1ccc(Cl)cc1F` has pIC50 that meets 7 or exceeds it? 1 (yes)

---

// compounds with reported IC50 on UniProt Q9HCE7, multi-publication
In plain terms, low IC50, meaning strictly below 200 nM, gives criterion met, and everything else gives criterion not met.

Report whether reported IC50 is lower than 200 nM (strictly) for `COc1ccccc1-c1onc(C(=O)Nc2c(C)n(C)n(-c3ccccc3F)c2=O)c1C` criterion not met

Report whether reported IC50 is lower than 200 nM (strictly) for `COc1ccc(-n2nnc(C(=O)Nc3c(C)n(C)n(C4CCCCC4)c3=O)c2C)cc1` criterion not met

Report whether reported IC50 is lower than 200 nM (strictly) for `Cc1c(C(=O)Nc2c(C)n(C)n(-c3ccccc3F)c2=O)noc1-c1ccc(Cl)cc1Cl` criterion met

Report whether reported IC50 is lower than 200 nM (strictly) for `Cc1c(C(=O)Nc2c(C)n(C)n(C3CCCCC3)c2=O)noc1C1=CCCCC1(C)C` criterion met

Report whether reported IC50 is lower than 200 nM (strictly) for `COc1ccccc1-c1onc(C(=O)Nc2c(C)n(C)n(C3CCCCC3)c2=O)c1C` criterion not met

Report whether reported IC50 is lower than 200 nM (strictly) for `CSc1ccc(-c2onc(C(=O)Nc3c(C)n(C)n(-c4ccccc4F)c3=O)c2C)cc1` criterion not met

Report whether reported IC50 is lower than 200 nM (strictly) for Cc1c(C(=O)Nc2c(C)n(C)n(C3CCCCC3)c2=O)noc1C1=CCC(OC(C)C)CC1 (stereo not shown) criterion not met

Report whether reported IC50 is lower than 200 nM (strictly) for `Cc1c(C(=O)Nc2c(C)n(C)n(C3CCCCC3)c2=O)noc1-c1ccc(Cl)cc1` criterion met

Report whether reported IC50 is lower than 200 nM (strictly) for `COc1cc(F)c(-c2onc(C(=O)Nc3c(C)n(C)n(-c4ccccc4F)c3=O)c2C)c(F)c1` criterion not met

Report whether reported IC50 is lower than 200 nM (strictly) for `Cc1c(C(=O)Nc2c(C)n(C)n(C3CCCCC3)c2=O)noc1/C=C/C(C)(C)C` criterion met

Report whether reported IC50 is lower than 200 nM (strictly) for `Cc1c(C(=O)Nc2c(C)n(C)n(-c3ccccc3F)c2=O)noc1-c1ccc(C(F)(F)F)cc1` criterion not met

Report whether reported IC50 is lower than 200 nM (strictly) for `[2H]C([2H])([2H])n1c(C)c(NC(=O)c2nnn(-c3ccc(C4CC4)cc3Cl)c2C)c(=O)n1C1CCCCC1` criterion met

Report whether reported IC50 is lower than 200 nM (strictly) for `Cc1c(NC(=O)c2noc(-c3ccc(C4CC4)cc3Cl)c2Cl)c(=O)n(-c2ccccc2F)n1C` criterion met

Report whether reported IC50 is lower than 200 nM (strictly) for `COc1ccc(-c2onc(C(=O)Nc3c(C)n(C)n(C4CCCCC4)c3=O)c2C)cc1C` criterion met

Report whether reported IC50 is lower than 200 nM (strictly) for `Cc1c(C(=O)Nc2c(C)n(C)n(C3CCCCC3)c2=O)nnn1-c1ccc(Cl)cc1Cl` criterion not met

Report whether reported IC50 is lower than 200 nM (strictly) for `Cc1c(C(=O)Nc2c(C)n(C)n(C3CCCCC3)c2=O)nnn1-c1ccc(Cl)cc1C1CC1` criterion not met
